# Experimental target: BRaf (Homo sapiens)
# Sequence (P15056 whole entry): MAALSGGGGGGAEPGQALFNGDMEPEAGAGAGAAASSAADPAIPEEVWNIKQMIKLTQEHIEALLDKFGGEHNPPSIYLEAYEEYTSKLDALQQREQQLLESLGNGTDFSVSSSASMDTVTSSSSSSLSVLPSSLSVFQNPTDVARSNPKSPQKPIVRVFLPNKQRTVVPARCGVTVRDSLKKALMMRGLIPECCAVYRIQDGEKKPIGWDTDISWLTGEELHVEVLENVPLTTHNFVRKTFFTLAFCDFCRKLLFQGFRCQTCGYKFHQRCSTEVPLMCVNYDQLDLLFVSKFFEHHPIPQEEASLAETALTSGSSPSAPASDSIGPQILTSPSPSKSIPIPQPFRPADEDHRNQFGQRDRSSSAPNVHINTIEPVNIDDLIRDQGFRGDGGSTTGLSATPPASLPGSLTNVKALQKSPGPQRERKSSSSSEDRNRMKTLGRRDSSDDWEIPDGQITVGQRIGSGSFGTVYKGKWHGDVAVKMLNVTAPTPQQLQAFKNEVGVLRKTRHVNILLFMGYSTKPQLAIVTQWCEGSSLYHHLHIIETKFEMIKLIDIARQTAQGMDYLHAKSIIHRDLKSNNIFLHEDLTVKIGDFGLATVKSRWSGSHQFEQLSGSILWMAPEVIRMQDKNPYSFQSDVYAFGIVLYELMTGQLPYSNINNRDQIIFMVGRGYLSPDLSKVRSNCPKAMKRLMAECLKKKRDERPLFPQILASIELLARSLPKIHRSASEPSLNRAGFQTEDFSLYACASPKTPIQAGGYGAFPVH
# Experiment description: KINOMEscan competition binding assay, selectivity BRaf versus MKK4
# Test settings: Test conc. 0.1 μM; ratio of percent of control; N/E* per footnote
Exercise: for every item that follows, state its recorded Selectivity BRaf/MKK4.
Answers are plain numbers.

- CCCS(=O)(=O)Nc1ccc(F)c(C(=O)c2c[nH]c3ncc(-c4cccc(C#N)c4)cc23)c1F [Example 14]: 1.5
- CCCS(=O)(=O)Nc1ccc(F)c(C(=O)c2c[nH]c3ncc(-c4ccc5c(c4)OCO5)cc23)c1F [Example 10]: 4.2

Switching to the query record.
Selectivity BRaf/MKK4 value, target or system BRaf (Homo sapiens), for CCCCS(=O)(=O)Nc1cccc(C(=O)c2c[nH]c3ncc(-c4ccc(Cl)cc4)cc23)c1F [Example 50] : 7.0
